METHOD: Ratio of the binding affinity towards CB1 receptor to that of CB2 receptor
QUANTITY_MEASURED: Ratio
Output spec: single numeric token, no unit.

A selection of reference data follows.
In [3]: df
Out[3]:
                        structure_as_smiles  quantitative_readout
0        CCCCCn1cc(C(=O)Cc2ccccc2)c2ccccc21                  0.57
1     CCCCCn1c(C)c(C(=O)Cc2ccccc2)c2ccccc21                  0.69
2     CCCCCn1cc(C(=O)Cc2cccc(F)c2)c2ccccc21                  0.79
3  CCCCCn1c(C)c(C(=O)Cc2ccc(Br)cc2)c2ccccc21                   1.2
4      CCCCCn1cc(C(=O)Cc2ccccc2Cl)c2ccccc21                   1.1

Problem: Consider the compound shown here: CCCCCn1c(C)c(C(=O)Cc2cccc(Cl)c2)c2ccccc21 What is its recorded Ratio?
Solution: 0.85

Problem: Now consider CCCCCn1cc(C(=O)Cc2ccc(F)cc2)c2ccccc21 .
Solution: 1.2

Problem: Now consider CCCCCn1cc(C(=O)Cc2ccc(Br)cc2)c2ccccc21 .
Solution: 1.6

Problem: Now consider CCCCCn1c(C)c(C(=O)Cc2ccc(OC)cc2)c2ccccc21 .
Solution: 2.6

Problem: Now consider CCCCCn1cc(C(=O)Cc2ccccc2Br)c2ccccc21 .
Solution: 0.42

Problem: Now consider CCCCCn1c(C)c(C(=O)Cc2cccc(OC)c2)c2ccccc21 .
Solution: 0.74

Problem: Now consider CCCCCn1c(C)c(C(=O)Cc2ccc(F)cc2)c2ccccc21 .
Solution: 3.7

Problem: Now consider CCCCCn1cc(C(=O)Cc2ccccc2OC)c2ccccc21 .
Solution: 0.33

Problem: Now consider CCCCCn1cc(C(=O)Cc2ccc(OC)cc2)c2ccccc21 .
Solution: 2.4

Problem: Now consider CCCCCn1cc(C(=O)Cc2ccc(Cl)cc2)c2ccccc21 .
Solution: 0.78

Problem: Now consider CCCCCn1cc(C(=O)Cc2cccc(OC)c2)c2ccccc21 .
Solution: 0.19

Problem: Now consider CCCCCn1cc(C(=O)Cc2ccccc2F)c2ccccc21 .
Solution: 0.6
